Target: human enzyme NAMPT (full length) (Homo sapiens, UniProt P43490)
Construct: human enzyme NAMPT (full length)
Sequence (P43490 whole entry): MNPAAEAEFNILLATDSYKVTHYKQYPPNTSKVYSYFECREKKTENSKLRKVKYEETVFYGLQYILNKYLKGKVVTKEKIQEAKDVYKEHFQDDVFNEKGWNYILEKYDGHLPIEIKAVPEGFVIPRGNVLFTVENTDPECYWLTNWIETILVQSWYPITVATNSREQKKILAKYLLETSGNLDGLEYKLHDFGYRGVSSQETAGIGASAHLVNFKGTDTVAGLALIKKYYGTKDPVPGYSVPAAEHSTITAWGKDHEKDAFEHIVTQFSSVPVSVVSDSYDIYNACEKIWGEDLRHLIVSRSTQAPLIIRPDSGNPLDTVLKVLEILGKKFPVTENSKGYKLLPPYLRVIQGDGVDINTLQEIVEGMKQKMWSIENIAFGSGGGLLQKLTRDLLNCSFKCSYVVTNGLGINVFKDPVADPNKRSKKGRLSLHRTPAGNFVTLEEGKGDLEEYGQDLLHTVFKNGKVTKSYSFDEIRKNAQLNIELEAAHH
Protocol Notes: NMN fluorescence biochemical assay (stimulation of NMN synthesis by NAMPT)
Test Parameters: fold change of maximal activation compared to DMSO
Method: Certain compounds described herein were assayed for their ability to stimulate the synthesis of nicotinamide mononucleotide (NMN) by human enzyme NAMPT (full length). […] Fluorescence (Ex/Em=382/445 nm) was measured using an Envision plate reader. The potency measurements for the test compounds were quantified and represented as EC50 (concentration of a compound that gives half-maximal activation) and Emax (fold change of a compound's maximal activation compared to DMSO).
Value Type: Enzymatic Emax

Example entries begin here.
Cn1ncc(Cl)c1CC1c2cc(C3CC3)ccc2C(=O)N1Cc1ccc2[nH]nnc2c1 (stereo not drawn) :: A (A>3)
COc1ncc(CN2C(=O)c3ccccc3C2Cc2c(Cl)cnn2C)o1 (stereo not drawn) :: C (2≥C)
N#Cc1ccccc1CC1c2ccccc2C(=O)N1Cc1ccc2[nH]nnc2c1 (stereo not drawn) :: B (3≥B>2)
N#Cc1nccc(Cl)c1CC1c2ccccc2C(=O)N1Cc1ccc2[nH]nnc2c1 (stereo not drawn) :: B (3≥B>2)
Cc1ccc2c(c1)C(=O)N(Cc1ccc(O)cc1)C2 :: A (A>3)

What value of Enzymatic Emax has been reported for the following compound? Cn1ncc(Cl)c1CC1c2cc(Cl)cc(F)c2C2(CC2)N1CC1CC2(CNC(=O)O2)C1 (stereo not drawn)
A (A>3)

What value of Enzymatic Emax has been reported for the following compound? COc1cnc(CN2C(=O)c3ccccc3C2Cc2c(Cl)cnn2C)cc1F (stereo not drawn)
B (3≥B>2)

What value of Enzymatic Emax has been reported for the following compound? Cc1ccnc(C#N)c1CC1c2ccccc2C(=O)N1CC1CC2(CNC(=O)O2)C1 (stereo not drawn)
B (3≥B>2)

From: patent US20260078130A1
